molecular target: FGFR3 (Homo sapiens)
pIC50: −log10 of the molar value.

| compound | pIC50 |
| --- | --- |
| Cc1ccc(Nc2nccc(N(C)c3ccc4[nH]ccc4c3)n2)cc1S(N)(=O)=O [MKP101] | 7.37 |

---

Examples of compounds with documented inhibition at 1 µM follow.
target: FGFR1 (Homo sapiens); construct: purchased Millipore UK Ltd., Dundee, UK (now Eurofins Scientific); KinaseProfiler / IC50 Profiler service; experiment: In vitro kinase assay, FGFR1; format: biochemical; settings: 1 μM, mean ± S.D.; read-out: % inhibition at 1 μM, FGFR1 (h)

| given.smiles | inhibition at 1 µM [%] |
| --- | --- |
| Cc1ccc(Nc2nccc(Oc3ccc4[nH]ccc4c3)n2)cc1S(N)(=O)=O | 83 |
| Cc1ccc(Nc2cc(Oc3ccc4[nH]ccc4c3)ncn2)cc1S(N)(=O)=O | 20 |
| COc1ccc(Nc2cc(Oc3ccc4[nH]ccc4c3)ncn2)cc1N1CCOCC1 | 29 |
| Cc1ccc(Nc2nccc(N(C)c3ccc4[nH]ccc4c3)n2)cc1S(N)(=O)=O | 98 |

---

Tested on: HCC827 cells
Test: HCC827 cell viability assay
Type: cell-based
Conditions: Homo sapiens, 72 h, read-out: HCC827 IC50 (anti-proliferative activity)
Protocol: HCC827 cells were purchased from the American Type Culture Collection (ATCC, Manassas, VA, USA). […] After a 24-hour incubation, the cells were treated with a series of test compound dilutions for 72 hours. Cell viability was assessed using EZ-Cytox (Daeil Lab Service, Seoul, South Korea) according to the manufacturer’s instructions. Cells were incubated for 72 h with a range of concentrations of MKP101, and cell viability was measured using the WST-1 assay. […]
pIC50: −log10 of the molar value.
The label depends only on pIC50: yes if it is at least 6, no if it is smaller.

| given.smiles | subject.of.test | label.class |
| --- | --- | --- |
| Cc1cc2cc(N(C)c3ccnc(Nc4ccc(C)c(S(N)(=O)=O)c4)n3)ccc2[nH]1 | HCC827 cells | no |
| Cc1ccc(Nc2nccc(N(C)c3ccc4c(ccn4C)c3)n2)cc1S(N)(=O)=O | HCC827 cells | no |
| Cc1ccc(Nc2nccc(N(C)c3ccc4[nH]ccc4c3)n2)cc1S(N)(=O)=O | HCC827 cells | yes |
| Cc1ccc(Nc2nccc(N(C)c3ccc4[nH]cc(C)c4c3)n2)cc1S(N)(=O)=O | HCC827 cells | yes |

---

Examples of compounds with documented IC50 follow.
target: EGFR (Homo sapiens, UniProt P00533)
assay.endpoint: IC50 (nM)

| given.smiles | subject.of.test | reported.value |
| --- | --- | --- |
| CN(c1ccc2c(ccn2C)c1)c1ccnc(Nc2ccc(N3CCOCC3)cc2)n1 | EGFR (Homo sapiens, UniProt P00533) | 10100 |
| Fc1cc(Nc2nccc(Nc3ccc4[nH]ccc4c3)n2)cc(N2CCOCC2)c1 | EGFR (Homo sapiens, UniProt P00533) | 610 |
| COc1ccc(Nc2cc(Oc3ccc4[nH]ccc4c3)ncn2)cc1N1CCOCC1 | EGFR (Homo sapiens, UniProt P00533) | 31 |
| Fc1cc(Nc2nccc(Nc3ccc4[nH]ccc4c3)n2)ccc1N1CCOCC1 | EGFR (Homo sapiens, UniProt P00533) | 1630 |
| Cc1ccc(Nc2cc(Oc3ccc4[nH]ccc4c3)ncn2)cc1S(N)(=O)=O | EGFR (Homo sapiens, UniProt P00533) | 18 |
| c1nc(Nc2ccc(N3CCOCC3)cc2)cc(Nc2ccc3[nH]ccc3c2)n1 | EGFR (Homo sapiens, UniProt P00533) | 7 |
| c1cc(Nc2ccc3[nH]ccc3c2)nc(Nc2ccc(OCCCCN3CCOCC3)cc2)n1 | EGFR (Homo sapiens, UniProt P00533) | 178 |
| c1cc(Nc2ccc3[nH]ccc3c2)nc(Nc2ccc(OCCN3CCOCC3)cc2)n1 | EGFR (Homo sapiens, UniProt P00533) | 210 |
| Cc1ccc(Nc2nccc(Oc3ccc4[nH]ccc4c3)n2)cc1S(N)(=O)=O | EGFR (Homo sapiens, UniProt P00533) | 2040 |
| c1cc(Nc2nccc(Nc3ccc4[nH]ccc4c3)n2)cc(N2CCOCC2)c1 | EGFR (Homo sapiens, UniProt P00533) | 180 |

---

biological target: EGFR (L858R) (Homo sapiens, UniProt P00533, L858R); construct: purchased Millipore UK Ltd., Dundee, UK (now Eurofins Scientific); KinaseProfiler / IC50 Profiler service; experiment: In vitro kinase assay, EGFR (L858R); format: biochemical; details: 1 μM, mean ± S.D.; read-out: % inhibition at 1 μM, EGFR(L858R)(h)
Sequence (P00533 25-1210 L858R): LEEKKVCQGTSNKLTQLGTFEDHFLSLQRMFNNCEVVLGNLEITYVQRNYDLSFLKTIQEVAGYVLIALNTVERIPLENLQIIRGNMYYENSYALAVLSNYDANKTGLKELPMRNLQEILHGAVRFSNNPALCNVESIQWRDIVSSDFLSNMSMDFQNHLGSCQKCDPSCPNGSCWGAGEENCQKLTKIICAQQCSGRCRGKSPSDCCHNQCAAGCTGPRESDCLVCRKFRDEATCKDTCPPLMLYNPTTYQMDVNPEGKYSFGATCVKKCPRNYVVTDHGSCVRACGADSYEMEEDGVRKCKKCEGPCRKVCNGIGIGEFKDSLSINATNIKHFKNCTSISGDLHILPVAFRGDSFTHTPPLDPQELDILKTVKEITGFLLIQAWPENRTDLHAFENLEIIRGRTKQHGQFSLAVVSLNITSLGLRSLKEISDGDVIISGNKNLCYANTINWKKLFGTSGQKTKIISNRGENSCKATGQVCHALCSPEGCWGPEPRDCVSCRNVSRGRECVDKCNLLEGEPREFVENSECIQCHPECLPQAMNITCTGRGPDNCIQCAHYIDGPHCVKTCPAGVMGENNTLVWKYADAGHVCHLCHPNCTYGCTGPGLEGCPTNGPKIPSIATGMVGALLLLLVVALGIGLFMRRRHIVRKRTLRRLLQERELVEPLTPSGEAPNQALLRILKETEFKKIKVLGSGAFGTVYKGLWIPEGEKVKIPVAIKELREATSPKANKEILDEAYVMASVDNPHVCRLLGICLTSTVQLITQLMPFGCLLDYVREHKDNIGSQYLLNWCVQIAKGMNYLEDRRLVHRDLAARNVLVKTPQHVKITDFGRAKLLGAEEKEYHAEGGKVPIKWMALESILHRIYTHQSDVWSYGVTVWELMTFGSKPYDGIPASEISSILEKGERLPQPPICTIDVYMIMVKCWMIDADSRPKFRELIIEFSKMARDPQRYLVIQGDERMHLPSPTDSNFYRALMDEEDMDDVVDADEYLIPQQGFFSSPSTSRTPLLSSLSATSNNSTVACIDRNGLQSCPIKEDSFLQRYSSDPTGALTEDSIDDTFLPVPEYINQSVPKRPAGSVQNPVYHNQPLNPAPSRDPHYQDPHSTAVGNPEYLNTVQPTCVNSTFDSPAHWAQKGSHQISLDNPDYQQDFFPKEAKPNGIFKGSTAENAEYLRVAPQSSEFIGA

| molecule | inhibition at 1 µM, % |
| --- | --- |
| COc1ccc(Nc2cc(Oc3ccc4[nH]ccc4c3)ncn2)cc1N1CCOCC1 [MKP121] | 98 |
| Cc1ccc(Nc2nccc(N(C)c3ccc4[nH]ccc4c3)n2)cc1S(N)(=O)=O [MKP101] | 96 |
| Cc1ccc(Nc2cc(Oc3ccc4[nH]ccc4c3)ncn2)cc1S(N)(=O)=O [MKP123] | 99 |
| Cc1ccc(Nc2nccc(Oc3ccc4[nH]ccc4c3)n2)cc1S(N)(=O)=O [MKP122] | 66 |

---

Target: PDGFRβ (Homo sapiens, UniProt P09619)
Construct: purchased Millipore UK Ltd., Dundee, UK (now Eurofins Scientific); KinaseProfiler / IC50 Profiler service
Sequence (P09619 33-1106): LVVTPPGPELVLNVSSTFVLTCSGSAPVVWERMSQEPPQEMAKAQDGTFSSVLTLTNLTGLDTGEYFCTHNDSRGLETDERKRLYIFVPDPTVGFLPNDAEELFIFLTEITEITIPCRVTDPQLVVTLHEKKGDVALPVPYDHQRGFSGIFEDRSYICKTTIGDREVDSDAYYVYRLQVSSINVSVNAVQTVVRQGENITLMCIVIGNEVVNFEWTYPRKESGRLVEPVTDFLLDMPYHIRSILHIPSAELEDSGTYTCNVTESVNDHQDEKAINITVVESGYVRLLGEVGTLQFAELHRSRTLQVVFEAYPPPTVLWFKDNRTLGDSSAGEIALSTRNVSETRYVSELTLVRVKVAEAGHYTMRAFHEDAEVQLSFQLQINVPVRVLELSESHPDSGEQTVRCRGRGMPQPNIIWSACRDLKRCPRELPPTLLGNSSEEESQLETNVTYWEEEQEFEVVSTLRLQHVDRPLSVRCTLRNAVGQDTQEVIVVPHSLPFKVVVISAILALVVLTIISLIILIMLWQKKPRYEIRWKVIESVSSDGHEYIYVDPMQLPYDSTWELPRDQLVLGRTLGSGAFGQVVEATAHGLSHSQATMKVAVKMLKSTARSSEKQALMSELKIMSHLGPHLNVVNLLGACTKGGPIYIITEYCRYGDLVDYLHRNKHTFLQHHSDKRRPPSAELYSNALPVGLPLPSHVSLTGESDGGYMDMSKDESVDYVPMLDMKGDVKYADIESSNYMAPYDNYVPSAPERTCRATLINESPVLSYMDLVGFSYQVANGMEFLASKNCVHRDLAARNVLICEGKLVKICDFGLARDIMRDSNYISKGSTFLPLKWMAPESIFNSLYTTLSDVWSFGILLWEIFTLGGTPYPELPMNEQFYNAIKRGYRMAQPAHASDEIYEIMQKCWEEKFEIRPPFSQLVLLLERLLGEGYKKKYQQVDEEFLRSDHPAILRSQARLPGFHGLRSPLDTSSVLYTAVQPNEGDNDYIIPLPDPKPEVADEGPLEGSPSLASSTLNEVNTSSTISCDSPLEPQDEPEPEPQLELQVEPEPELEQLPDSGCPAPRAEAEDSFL
Assay: In vitro kinase assay, PDGFRβ
Type: biochemical
Settings: 1 μM, mean ± S.D.; read-out: % inhibition at 1 μM, PDGFRβ (h)
Protocol: All kinase assays were carried out using KinaseProfiler^TM and IC50 Profiler^TM (Millipore UK Ltd., Dundee, UK. Now Eurofins Scientific, Dundee, UK). All IC50 data were presented as the mean values. The Curves obtained to determine IC50 values were shown in Supporting Information (S1 Fig).
Examples of compounds with documented inhibition at 1 µM follow.
assay.endpoint: inhibition at 1 µM (%)

| compound | reported.value |
| --- | --- |
| Cc1ccc(Nc2nccc(Oc3ccc4[nH]ccc4c3)n2)cc1S(N)(=O)=O [MKP122] | 92 |
| Cc1ccc(Nc2cc(Oc3ccc4[nH]ccc4c3)ncn2)cc1S(N)(=O)=O [MKP123] | 44 |
| COc1ccc(Nc2cc(Oc3ccc4[nH]ccc4c3)ncn2)cc1N1CCOCC1 [MKP121] | 48 |
| Cc1ccc(Nc2nccc(N(C)c3ccc4[nH]ccc4c3)n2)cc1S(N)(=O)=O [MKP101] | 95 |

---

biological target: VEGFR-1 (Homo sapiens, UniProt P17948); construct: purchased Millipore UK Ltd., Dundee, UK (now Eurofins Scientific); KinaseProfiler / IC50 Profiler service; test: In vitro kinase assay, VEGFR-1; format: biochemical; conditions: 1 μM, mean ± S.D.; read-out: % inhibition at 1 μM, VEGFR-1 (h)
Sequence (P17948 27-1338): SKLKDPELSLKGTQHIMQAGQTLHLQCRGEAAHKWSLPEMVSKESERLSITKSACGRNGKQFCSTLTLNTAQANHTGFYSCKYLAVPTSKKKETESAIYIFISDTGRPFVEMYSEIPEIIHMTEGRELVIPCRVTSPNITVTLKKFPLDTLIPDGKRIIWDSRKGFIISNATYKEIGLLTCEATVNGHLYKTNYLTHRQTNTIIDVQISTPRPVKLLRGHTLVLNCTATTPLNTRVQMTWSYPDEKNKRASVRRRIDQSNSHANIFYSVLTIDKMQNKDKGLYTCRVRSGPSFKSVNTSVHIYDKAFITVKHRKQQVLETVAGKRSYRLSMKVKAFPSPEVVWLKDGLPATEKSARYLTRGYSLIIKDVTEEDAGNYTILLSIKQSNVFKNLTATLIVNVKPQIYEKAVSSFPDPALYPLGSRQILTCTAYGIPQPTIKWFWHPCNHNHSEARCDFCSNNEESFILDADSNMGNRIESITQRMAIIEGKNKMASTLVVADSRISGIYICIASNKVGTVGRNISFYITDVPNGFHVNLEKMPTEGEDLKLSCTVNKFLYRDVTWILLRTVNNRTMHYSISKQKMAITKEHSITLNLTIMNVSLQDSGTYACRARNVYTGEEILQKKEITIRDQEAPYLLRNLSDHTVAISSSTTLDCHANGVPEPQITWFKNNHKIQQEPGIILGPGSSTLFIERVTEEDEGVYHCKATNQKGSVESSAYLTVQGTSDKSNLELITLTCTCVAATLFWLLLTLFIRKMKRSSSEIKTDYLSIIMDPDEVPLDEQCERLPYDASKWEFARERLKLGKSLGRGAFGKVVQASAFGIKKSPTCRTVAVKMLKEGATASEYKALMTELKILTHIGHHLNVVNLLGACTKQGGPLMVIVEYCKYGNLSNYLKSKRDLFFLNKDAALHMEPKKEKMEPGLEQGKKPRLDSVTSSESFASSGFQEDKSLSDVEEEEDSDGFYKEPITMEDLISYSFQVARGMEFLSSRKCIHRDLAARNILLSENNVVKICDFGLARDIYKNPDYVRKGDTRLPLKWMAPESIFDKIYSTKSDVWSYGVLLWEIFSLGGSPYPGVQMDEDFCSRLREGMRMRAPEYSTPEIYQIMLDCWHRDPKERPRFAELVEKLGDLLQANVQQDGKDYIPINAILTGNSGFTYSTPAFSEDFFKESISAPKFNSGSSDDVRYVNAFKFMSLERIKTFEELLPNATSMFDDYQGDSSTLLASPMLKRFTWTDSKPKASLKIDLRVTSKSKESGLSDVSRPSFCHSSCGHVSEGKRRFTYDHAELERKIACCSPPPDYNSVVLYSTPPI
Examples of compounds with documented inhibition at 1 µM follow.

| given.smiles | inhibition at 1 µM |
| --- | --- |
| Cc1ccc(Nc2nccc(N(C)c3ccc4[nH]ccc4c3)n2)cc1S(N)(=O)=O | 99% |
| COc1ccc(Nc2cc(Oc3ccc4[nH]ccc4c3)ncn2)cc1N1CCOCC1 | 99% |
| Cc1ccc(Nc2nccc(Oc3ccc4[nH]ccc4c3)n2)cc1S(N)(=O)=O | 100% |
| Cc1ccc(Nc2cc(Oc3ccc4[nH]ccc4c3)ncn2)cc1S(N)(=O)=O | 99% |

---

target: EGFR (Homo sapiens); assay: In vitro kinase assay, EGFR; type: biochemical; conditions: 1 μM, mean ± S.D.; read-out: % inhibition at 1 μM, EGFR(h)
Examples of molecules with documented inhibition at 1 µM follow.
assay.endpoint: inhibition at 1 µM (%)

| given.smiles | reported.value |
| --- | --- |
| Cc1ccc(Nc2nccc(N(C)c3ccc4cc[nH]c4c3)n2)cc1S(N)(=O)=O | 47 |
| Cc1cc2cc(N(C)c3ccnc(Nc4ccc(C)c(S(N)(=O)=O)c4)n3)ccc2[nH]1 | 42 |
| Cc1ccc(Nc2nccc(Oc3ccc4[nH]ccc4c3)n2)cc1S(N)(=O)=O | 35 |
| Cc1ccc(Nc2cc(Oc3ccc4[nH]ccc4c3)ncn2)cc1S(N)(=O)=O | 100 |
| Cc1ccc(Nc2nccc(N(C)c3ccc4[nH]ccc4c3)n2)cc1S(N)(=O)=O | 96 |
| Cc1ccc(Nc2nccc(N(C)c3ccc4c(ccn4C)c3)n2)cc1S(N)(=O)=O | 20 |
| COc1ccc(Nc2cc(Oc3ccc4[nH]ccc4c3)ncn2)cc1N1CCOCC1 | 94 |
| Cc1ccc(Nc2nccc(N(C)c3ccc4[nH]cc(C)c4c3)n2)cc1S(N)(=O)=O | 93 |

---

pIC50: −log10 of the molar value.
The following are reported pIC50 results, target or system UniProt P35968.
Sequence (P35968 20-1356): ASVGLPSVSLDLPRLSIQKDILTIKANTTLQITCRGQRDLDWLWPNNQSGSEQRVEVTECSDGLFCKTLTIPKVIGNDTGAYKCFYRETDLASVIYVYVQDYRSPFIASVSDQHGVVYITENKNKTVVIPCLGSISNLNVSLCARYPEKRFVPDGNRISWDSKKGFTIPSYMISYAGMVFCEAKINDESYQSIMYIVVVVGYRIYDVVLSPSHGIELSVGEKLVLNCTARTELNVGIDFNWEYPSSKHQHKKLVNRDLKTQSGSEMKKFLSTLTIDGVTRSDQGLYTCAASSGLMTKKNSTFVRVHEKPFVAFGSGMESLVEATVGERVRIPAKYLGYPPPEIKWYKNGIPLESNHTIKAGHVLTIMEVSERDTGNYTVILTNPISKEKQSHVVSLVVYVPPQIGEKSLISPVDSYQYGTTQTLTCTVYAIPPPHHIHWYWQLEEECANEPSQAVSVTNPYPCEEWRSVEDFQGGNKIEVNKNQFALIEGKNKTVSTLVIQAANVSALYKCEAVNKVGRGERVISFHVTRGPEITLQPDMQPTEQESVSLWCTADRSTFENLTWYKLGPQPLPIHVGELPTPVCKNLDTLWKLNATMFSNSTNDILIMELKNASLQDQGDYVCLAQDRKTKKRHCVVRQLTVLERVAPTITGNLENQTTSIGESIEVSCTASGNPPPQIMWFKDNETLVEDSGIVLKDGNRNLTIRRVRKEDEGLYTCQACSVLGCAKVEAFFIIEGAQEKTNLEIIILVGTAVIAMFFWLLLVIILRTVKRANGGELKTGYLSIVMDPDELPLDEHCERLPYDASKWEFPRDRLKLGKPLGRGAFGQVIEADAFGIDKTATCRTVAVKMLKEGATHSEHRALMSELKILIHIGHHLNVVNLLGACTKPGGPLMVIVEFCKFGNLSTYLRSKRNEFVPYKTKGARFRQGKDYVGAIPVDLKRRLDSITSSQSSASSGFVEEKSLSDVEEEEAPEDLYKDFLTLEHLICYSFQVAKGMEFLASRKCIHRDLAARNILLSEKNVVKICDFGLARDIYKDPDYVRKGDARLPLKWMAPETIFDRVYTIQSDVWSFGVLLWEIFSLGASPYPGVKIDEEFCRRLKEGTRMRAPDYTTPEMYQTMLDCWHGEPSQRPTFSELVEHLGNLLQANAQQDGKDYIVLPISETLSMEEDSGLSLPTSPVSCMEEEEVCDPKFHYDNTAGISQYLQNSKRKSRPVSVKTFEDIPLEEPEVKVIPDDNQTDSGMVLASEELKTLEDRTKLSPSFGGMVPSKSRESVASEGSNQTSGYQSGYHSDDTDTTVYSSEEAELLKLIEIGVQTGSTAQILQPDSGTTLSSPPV
assay.endpoint: pIC50

| compound | assay.endpoint | reported.value |
| --- | --- | --- |
| Cc1ccc(Nc2nccc(Oc3ccc4[nH]ccc4c3)n2)cc1S(N)(=O)=O [MKP122] | pIC50 | 7.70 |
| Fc1cc(Nc2nccc(Nc3ccc4[nH]ccc4c3)n2)cc(N2CCOCC2)c1 [MKP114] | pIC50 | 7.39 |
| Cn1ccc2cc(Nc3ccnc(Nc4ccc(N5CCOCC5)cc4)n3)ccc21 [MKP111] | pIC50 | 5.80 |
| Fc1cc(Nc2nccc(Nc3ccc4[nH]ccc4c3)n2)ccc1N1CCOCC1 [MKP113] | pIC50 | 7.52 |
| c1nc(Nc2ccc(N3CCOCC3)cc2)cc(Oc2ccc3[nH]ccc3c2)n1 [MKP120] | pIC50 | 7.49 |
| c1cc(Nc2nccc(Nc3ccc4[nH]ccc4c3)n2)cc(N2CCOCC2)c1 [MKP110] | pIC50 | 7.52 |
| c1cc(Nc2ccc3[nH]ccc3c2)nc(Nc2ccc(OCCN3CCOCC3)cc2)n1 [MKP106] | pIC50 | 7.70 |

// provenance: paper PMC4581874
